Attribution: patent US11266622B2

# target_under_test: Mel1a (MT1R) (Homo sapiens, UniProt P48039)
# Sequence (P48039 whole entry): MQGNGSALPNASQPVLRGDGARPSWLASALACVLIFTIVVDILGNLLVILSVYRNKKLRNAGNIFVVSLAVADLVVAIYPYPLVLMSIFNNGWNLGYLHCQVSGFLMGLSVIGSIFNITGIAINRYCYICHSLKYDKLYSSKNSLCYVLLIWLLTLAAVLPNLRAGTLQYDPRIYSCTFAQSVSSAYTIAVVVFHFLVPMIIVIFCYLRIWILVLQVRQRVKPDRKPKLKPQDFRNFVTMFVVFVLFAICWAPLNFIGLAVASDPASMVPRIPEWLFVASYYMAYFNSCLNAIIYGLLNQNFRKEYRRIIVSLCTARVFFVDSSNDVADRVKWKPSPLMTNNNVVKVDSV
pKi: −log10 of the molar value.
observed_property: pKi

Q) Record CCC(=O)NC[C@@H]1C[C@H]1c1cccc2c1CCO2 (relative stereo) : what is its pKi with Mel1a (MT1R) (Homo sapiens, UniProt P48039)?
A) 9.40 to 9.52

###

Target sequence: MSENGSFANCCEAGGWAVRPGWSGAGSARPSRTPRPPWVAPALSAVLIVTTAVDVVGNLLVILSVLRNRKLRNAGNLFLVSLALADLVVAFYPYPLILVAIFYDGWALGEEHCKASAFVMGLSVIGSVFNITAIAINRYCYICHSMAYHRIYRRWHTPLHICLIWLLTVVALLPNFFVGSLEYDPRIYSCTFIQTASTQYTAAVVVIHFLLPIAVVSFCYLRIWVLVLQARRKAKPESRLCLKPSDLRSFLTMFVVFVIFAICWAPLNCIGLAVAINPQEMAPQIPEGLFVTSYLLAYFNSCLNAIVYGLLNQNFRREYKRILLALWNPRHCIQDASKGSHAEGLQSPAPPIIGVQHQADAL
observed_property: Ki

Q) Param item = CCC(=O)NC[C@@H]1C[C@H]1c1cccc2c1CCO2 (relative stereo) ; retrieve measured Ki.
A) 0.1 to 0.2 nM
